These measurements were taken from PubChem BioAssay AID2060900.

Tested on: 521955-158-R2-J5-PDC complex spheroids, viability;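 note: spheroids also contain HUVEC endothelial cells and mesenchymal stem cells as stroma; compound exposure lasted seven days before the viability read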
run-description: Anticancer human tumor 521955-158-R2-J5-PDC patient-derived pancreatic carcinoma cell line growth inhibition [RAS]
condition-context: second compound 0.3 µM; first compound 0.1 µM; stronger effect = lower value
Text: RAS pathway inhibitors in Combinations in Complex Spheroids A high-throughput screen of multi-cell type tumor spheroids was designed to identify active combinations of RAS pathway inhibitors and targeted small molecules. Complex spheroids include a stromal component modeled by human endothelial cells (HUVEC) and fibroblasts modeled by human mesenchymal stem cells (MSCs). […] Compounds. […] If the clinical Cmax for an agent had not been determined, the highest concentration tested was 10 microM. […]
Could you mark each record Satisfied if its viability, T/C falls strictly under 9%, and Not satisfied if it equals or exceeds it?

>  <compound>
NC1c2ccccc2OC12CCN(c1cnc3c(N4CCCc5ncccc54)n[nH]c3n1)CC2 (stereo unspecified) + CCn1c(-c2cc(N3CCN(C)CC3)cnc2C(C)OC)c2c3cc(ccc31)-c1csc(n1)CC(NC(=O)C1CC1C)C(=O)N1CCCC(N1)C(=O)OCC(C)(C)C2

>  <class>
Satisfied

$$$$
>  <compound>
Nc1ccn(C2OC(CO)C(O)C2(F)F)c(=O)n1 (stereo unspecified) + CCn1c(-c2cc(N3CCN(C)CC3)cnc2C(C)OC)c2c3cc(ccc31)-c1csc(n1)CC(NC(=O)C1CC1C)C(=O)N1CCCC(N1)C(=O)OCC(C)(C)C2

>  <class>
Not satisfied

$$$$
>  <compound>
C[C@@H](NC(=O)c1ncnc(N)c1Cl)c1ncc(C(=O)Nc2cc(C(F)(F)F)c(Cl)cn2)s1 + CCn1c(-c2cccnc2C(C)OC)c2c3cc(ccc31)N1CCOC(CC(NC(=O)C(C(C)C)N(C)C(=O)C3(F)CCN(C(=O)C#CC(C)(C)N(C)C)CC3)C(=O)N3CCCC(N3)C(=O)OCC(C)(C)C2)C1

>  <class>
Not satisfied

$$$$
>  <compound>
CC(C)n1nc(-c2ccc3oc(N)nc3c2)c2c(N)ncnc21 + CCn1c(-c2cccnc2C(C)OC)c2c3cc(ccc31)N1CCOC(CC(NC(=O)C(C(C)C)N(C)C(=O)C3(F)CCN(C(=O)C#CC(C)(C)N(C)C)CC3)C(=O)N3CCCC(N3)C(=O)OCC(C)(C)C2)C1

>  <class>
Not satisfied

$$$$

Please look at the following compound next.
Hello, I'm reviewing records and need to know if viability, T/C of C=CC(=O)Nc1cc(Nc2nccc(-c3cn(C)c4ccccc34)n2)c(OC)cc1N(C)CCN(C)C + CCn1c(-c2cc(N3CCN(C)CC3)cnc2C(C)OC)c2c3cc(ccc31)-c1csc(n1)CC(NC(=O)C1CC1C)C(=O)N1CCCC(N1)C(=O)OCC(C)(C)C2 is below 9%. Could you check?
Satisfied
